Compiled from multiple publications: log10(Ki) readings for UniProtKB P07477.
Heads up, the numbers here are log10 of Ki in µM units.

{"COMPOUND": "CC1(C)[C@@H]2C[C@H]3OB([C@H](CCCCN)NC(=O)Cn4nc(-c5cccc(N)c5)nc4Cc4ccccc4)O[C@@]3(C)[C@H]1C2", "STUDY_SYSTEM": "UniProtKB P07477", "log10(Ki)": -2.38}
{"COMPOUND": "Cc1cc(N)nc(C)c1CNC(=O)Cn1c(C)ccc(NS(=O)(=O)Cc2ccccc2)c1=O", "STUDY_SYSTEM": "UniProtKB P07477", "log10(Ki)": 0.32}
{"COMPOUND": "N=C(N)Nc1ccc(CNC(=O)CCC(=O)NCc2ccc(CNC(=O)CCC(=O)NCc3ccc(NC(=N)N)cc3)cc2)cc1", "STUDY_SYSTEM": "UniProtKB P07477", "log10(Ki)": 2.16}
{"COMPOUND": "CC1(C)[C@@H]2C[C@H]3OB([C@H](CCCCN)NC(=O)Cn4nc(CCC(=O)O)nc4Cc4ccccc4)O[C@@]3(C)[C@H]1C2", "STUDY_SYSTEM": "UniProtKB P07477", "log10(Ki)": -2.15}

State the recorded log10(Ki) for every item in the following list.
1. O=C1COc2ccc(Cl)cc2CNC(=O)[C@@H]2CCCN2C(=O)C(C2CCCCC2)NC(=O)CCN1 (stereo not given in full)
2. CN(Cc1ccc(CN(C)C(=O)CCC(=O)NCc2ccc(CN)cc2)cc1)C(=O)CCC(=O)NCc1ccc(CN)cc1
3. CC(C)OCC1(C(=O)Nc2ccc(-c3ccccc3S(N)(=O)=O)cc2)CC(c2cccc(C(=N)N)c2)=NO1 (stereo not given)
4. NCCCCCCN(CCCCCCN)C1CSCCC1=O (stereo not given)

1: 1.33; 2: 2.21; 3: -0.92; 4: 3.15

* * *

pKi: −log10 of the molar value.
Compiled from multiple publications: pKi readings for Serine protease 1 (Homo sapiens).

{"ENTRY_SMILES": "COc1ccc(-n2nc(C(F)(F)F)cc2C(=O)Nc2ccc(-c3ccccc3S(C)(=O)=O)cc2F)c(CN)c1", "pKi": "< 5.80"}
{"ENTRY_SMILES": "CC1=C(CC(=O)NCc2cc(Cl)ccc2CN)C(=O)N(NCc2cccc(C(=O)O)c2)CC1", "pKi": "< 5.27"}

Which value of pKi has been reported for CC(=N)N1CCC(CNC(=O)N2CCN(C(=O)O[C@H]3CCC[C@@H](OC(=O)N4CCN(C(=O)NCC5CCN(C(C)=N)CC5)CC4)CCC3)CC2)CC1 in the records? < 3.00

* * *

Compiled from multiple publications: Ki readings for Serine protease 1 (Homo sapiens, UniProt P07477).

State the recorded Ki for every item in the following list.
1. Nc1cc(C2=NOC(Cn3cccn3)(C(=O)Nc3ccc(-c4ccccc4S(N)(=O)=O)cn3)C2)ccc1Cl (racemic)
2. N=C(N)c1cccc(CN2CC[C@H](NS(=O)(=O)c3ccc4cccnc4c3)C2=O)c1
3. O=C1CN(S(=O)(=O)c2cc3ccc(Cl)cc3s2)CCN1Cc1cc2c(O)[nH]ccc-2n1

1. > 1600 nM
2. > 2900 nM
3. > 2900 nM

* * *

Compiled from multiple publications: pKi readings for Serine protease 1 (Homo sapiens, UniProt P07477).
Answers are plain numbers, as −log10 of the molar value.

{"COMPOUND": "COC(=O)CC1(C(=O)Nc2ccc(-c3ccccc3S(N)(=O)=O)cc2)CC(c2cccc(C(=N)N)c2)=NO1.O=C(O)C(F)(F)F (stereo unspecified)", "pKi": 6.96}
{"COMPOUND": "Cc1ccc(NC(=O)c2ccccc2)c(=O)n1CC(=O)NCC1CCN(C(=N)N)CC1", "pKi": 5.82}

Now for a further compound.
Which value of pKi has been reported for COC(=O)CC(CCc1ccc(C(=O)OC)cc1)c1cccc(C(=N)N)c1 (stereo unspecified) in the records? 6.48

* * *

Compiled from multiple publications: Ki readings for Serine protease 1 (Homo sapiens).

Below, 2 compounds whose answers are already recorded.
{"COMPOUND": "N=C(N)c1cccc(CN2CC[C@H](NS(=O)(=O)c3ccc4ccnc(N)c4c3)C2=O)c1", "OBSERVATION_TYPE": "Ki", "RESULT": "> 2.9 µM"}
{"COMPOUND": "N/C(=N\\O)c1ccc(CNC(=O)CNC(=O)[C@@H](CO)NS(=O)(=O)Cc2ccccc2)cc1", "OBSERVATION_TYPE": "Ki", "RESULT": "> 1000 µM"}

Now for a further compound.
Which value of Ki has been reported for CC(=O)N[C@H](Cc1ccccc1)C(=O)N1CCC[C@H]1C(=O)N[C@@H](CCCNc1ncccn1)B1O[C@@H]2CC3CC(C3(C)C)[C@]2(C)O1 (stereo partly drawn) in the records? > 1.2 µM

* * *

Compiled from multiple publications: pKi readings for UniProt P07477.
One number for each entry, as −log10 of the molar value.

{"MOLECULE": "N=C(N)c1cccc(N2CCCCN(C3CCN(CCc4ccccc4)CC3)C2=O)c1", "pKi": 6.00}
{"MOLECULE": "CCc1nc2ccc(OC3CCN(C(C)=N)CC3)cc2n1Cc1ccc(-c2cccc(C(=N)N)c2)cc1", "pKi": 7.14}
{"MOLECULE": "N=C(N)N1CCC(OCCC2CCCCN2C(=O)[C@H](CC(=O)O)NC2CCCCC2)CC1 (stereo partly specified)", "pKi": 5.54}
{"MOLECULE": "COC(=O)CC(CCc1ccc(NS(=O)(=O)c2ccccc2)cc1)c1cccc(C(=N)N)c1 (stereo unspecified)", "pKi": 6.21}
{"MOLECULE": "CNS(=O)(=O)c1ccccc1-c1ccc(NC(=O)C2(Cn3cnnn3)CC(c3cccc(C(=N)N)c3)=NO2)cc1 (stereo unspecified)", "pKi": 7.31}

State the recorded pKi for every item in the following list.
1. N=C(N)c1ccc2cc(C(=O)Nc3ccc(CN)cc3)cc(Nc3ncccn3)c2c1
2. N=C(N)c1ccc(CNC(=O)[C@H]2CCCN2C(=O)[C@@H](CO)NS(=O)(=O)Cc2ccccc2)cc1
3. CCCc1ccc(NS(=O)(=O)Cc2ccccc2)c(=O)n1CC(=O)NCc1ccc(N)nc1C

7.70
8.49
5.85

State the recorded pKi for every item in the following list.
1. Cc1cnc(NCCc2ccccc2)c(=O)n1CC(=O)NCc1ccc2nccn2c1
2. CSCC[C@@H](NC(=O)c1cccc(C(=N)N)c1)C(=O)NCC1CCC(CN)CC1 (stereo partly specified)
3. CCOCC1(C(=O)Nc2ccc(-c3ccccc3S(N)(=O)=O)cc2)CC(c2cccc(C(=N)N)c2)=NO1 (stereo unspecified)

1: 4.00; 2: 5.00; 3: 7.15

State the recorded pKi for every item in the following list.
1. CCCNS(=O)(=O)c1ccccc1-c1ccc(NC(=O)C2(Cn3cnnn3)CC(c3cccc(C(=N)N)c3)=NO2)cc1 (stereo unspecified)
2. COC(=O)CC(CCc1ccc(C(=N)N)cc1)c1cccc(C(=N)N)c1 (stereo unspecified)
3. CCc1nc2ccc(OC3CCN(C(C)=N)CC3)cc2n1Cc1cccc(-c2ccc(C(=N)N)cc2)c1
4. Cc1ccc(NS(=O)(=O)Cc2ccccc2)c(=O)n1CC(=O)NCc1cccc(Cl)c1
5. CC1(C)[C@@H]2C[C@H]3OB([C@H](CCCCN)NC(=O)Cn4nc(CC#N)nc4Cc4ccccc4[N+](=O)[O-])O[C@@]3(C)[C@H]1C2
6. CCSCC1(C(=O)Nc2ccc(-c3ccccc3S(N)(=O)=O)cn2)CC(c2cccc(C(=N)N)c2)=NO1 (stereo unspecified)
7. CC(C)COC(=O)OC[C@@H](NS(=O)(=O)Cc1ccccc1)C(=O)NCC(=O)NCc1ccc(C(=N)N)cc1

1: 7.31; 2: 7.00; 3: 6.37; 4: 4.70; 5: 8.08; 6: 7.27; 7: 6.92

* * *

Compiled from multiple publications: Ki readings for Serine protease 1 (Homo sapiens, UniProt P07477).

Below, 2 compounds whose answers are already recorded.
{"COMPOUND": "CC(C)N1CCC(NC(=O)c2cc3ccccc3n2Cc2cc3ccc(Cl)cc3s2)CC1", "Ki": "> 100 µM"}
{"COMPOUND": "CC(C)(C)OC(=O)N[C@H](Cc1ccc(Cl)c(Cl)c1)C(=O)N1CCC[C@H]1C(=O)NCC1CCc2nc(N)ncc2C1 (stereo partly drawn)", "Ki": "> 68.3 µM"}

Now for a further compound.
Which value of Ki has been reported for Nc1cc(C2=NOC(CNS(=O)(=O)c3ccccc3)(C(=O)Nc3ccc(-c4ccccc4S(N)(=O)=O)cn3)C2)ccc1Cl (racemic) in the records? > 8 µM

* * *

Compiled from multiple publications: Ki readings for Serine protease 1 (Homo sapiens, UniProt P07477).

{"MOLECULE": "CC1=C(CC(=O)NCc2cc(Cl)ccc2CN)C(=O)N(NCc2ccccc2)CC1", "OBSERVATION_TYPE": "Ki", "RESULT": "> 5400 nM"}

State the recorded Ki for every item in the following list.
1. N=C(N)c1cccc(CN2CC[C@H](NS(=O)(=O)c3cc4nc(Cl)ccc4s3)C2=O)c1
2. COc1ccc2ccc(S(=O)(=O)NC3CCN(Cc4ccc5nc(N)ccc5c4)C3=O)cc2c1 (stereo not drawn)

["> 2900 nM", "> 2900 nM"]
